Experiment Description: chemical genetic growth profiling, strain panel (AID 1159580);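 note: tested at 20 µM; growth read once vehicle control cultures reached saturation at 30 °C; 1 = growth at the plate median or of vehicle wells; lower values mean less growth of the strain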
Condition Context: S. cerevisiae deletion strains, growth OD, locus YOR270C, strain vph1, stronger effect = lower value
Among all 5,500 compounds or so, about 2,000 (36%) were called active. Inconclusive results (about 18%) are left out. The list shows a part of the results.
Criterion: normalized growth strictly under 1. Met: 1. Not met: 0.

Previously resolved entries follow.
[[record]]
compound = "Nc1ccc([As](=O)(O)O)cc1"
assigned_category = 0

[[record]]
compound = "O=C1C=CC2=C3c4cc(O)c(O)cc4CC3(O)COC2=C1O (configuration not stated)"
assigned_category = 1


Regarding CC(=O)NCCCCCC(=O)O , kindly confirm whether its normalized growth is beneath 1.
1

Regarding CC/C(=C(\c1ccccc1)c1ccc(OCCN(C)C)cc1)c1ccccc1 , kindly confirm whether its normalized growth is beneath 1.
1

Regarding CCCCC1=NC2(CCCC2)C(=O)N1Cc1ccc(-c2ccccc2-c2nn[nH]n2)cc1 , kindly confirm whether its normalized growth is beneath 1.
0

====

Experiment Description: chemical genetic growth profiling, strain panel (AID 1159580)
Condition Context: S. cerevisiae deletion strains, growth OD, locus YPL031C, strain PHO85
The whole screen tested about 5,500 compounds, of which about 2,000 (36%) were called active. About 18% were inconclusive and are not listed. Rule as the data show it: active = normalized growth mostly below about 0.91 (no sharp cut-off); inconclusive = no clear call, values can overlap the other calls; inactive = mostly above about 0.92. This is one part of the list.
Response enum: active, inactive

[[record]]
compound = "Cc1cccc(Cl)c1/C=N\\NC(N)=S"
assigned_category = "inactive"

[[record]]
compound = "CC(=O)Nc1ccc([N+](=O)[O-])cc1[N+](=O)[O-]"
assigned_category = "active"

[[record]]
compound = "O=[N+]([O-])c1ccccc1CS(=O)(=O)c1nc2ccccc2s1"
assigned_category = "inactive"

[[record]]
compound = "CC(C)c1ccc(N2C=Nc3ccc(C(C)C)cc3C2)cc1"
assigned_category = "inactive"

[[record]]
compound = "O=c1c(Cl)c(-n2cccn2)cnn1-c1ccc(Cl)cc1Cl"
assigned_category = "inactive"

[[record]]
compound = "N#CC(C#N)=C/C=C(/Sc1ccc(F)c(Cl)c1)c1ccc(Cl)cc1"
assigned_category = "inactive"


Which result was noted for this compound in the test: S=C(N/N=C\c1ccc(Cl)cc1)N/N=C\c1ccc(Cl)cc1
inactive

Which result was noted for this compound in the test: N#CC(C#N)=C/C=C(/Sc1nc2ccccc2s1)c1ccc(Br)cc1
active

Which result was noted for this compound in the test: CC(C)c1ccc(NCC(O)CSc2ccccc2)cc1 (stereo unspecified)
inactive

Which result was noted for this compound in the test: CCOC(=O)C1=C(N)OC2=C(C(=O)CC(C)(C)C2)C1c1ccc(Cl)cc1Cl (stereo unspecified)
inactive

Which result was noted for this compound in the test: O=C1CSC(c2cccnc2)N1c1ccc(Cl)cc1Cl (stereo unspecified)
inactive

====

// reported normalized growth for each item listed
Experiment Description: chemical genetic growth profiling, strain panel (AID 1159580);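 note: tested at 20 µM; growth read once vehicle control cultures reached saturation at 30 °C; 1 = growth at the plate median or of vehicle wells; lower values mean less growth of the strain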
Condition Context: S. cerevisiae deletion strains, growth OD, locus YMR307W, strain GAS1, stronger effect = lower value
Hit rate of the full screen: of about 5,500 compounds, about 2,000 (36%) were called active. Roughly 18% stayed inconclusive and do not appear here. The list shows a part of the results.
// return a plain number; no unit text

Below, each entry is followed by its recorded normalized growth result.
[[record]]
compound = "O=C1OC2COC(=O)C2C=C1NC(=O)c1ccc(Cl)cc1 (stereo not given)"
measure_name = "normalized growth"
result_value = 0.786

[[record]]
compound = "O=C(O)CF"
measure_name = "normalized growth"
result_value = 0.945

[[record]]
compound = "CCCCCCCCCCCCCCCC(=O)NCCO"
measure_name = "normalized growth"
result_value = 1

[[record]]
compound = "C=CC(C)(O)CC/C=C(\\C)CCC=C(C)C (stereo not given)"
measure_name = "normalized growth"
result_value = 0.621

[[record]]
compound = "C[C@@]1(C2CCCC2)Cc2cc(OCC(=O)O)c(Cl)c(Cl)c2C1=O"
measure_name = "normalized growth"
result_value = 1.01


The recorded normalized growth for C=C(CC)C(=O)c1ccc(OCC(=O)O)c(Cl)c1Cl is 1

The recorded normalized growth for C=CC(C1=CC(=O)C=CC1=O)c1ccccc1 (stereo not given) is 0.966

====

Experiment Description: chemical genetic growth profiling, strain panel (AID 1159580);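 note: tested at 20 µM; growth read once vehicle control cultures reached saturation at 30 °C; 1 = growth at the plate median or of vehicle wells; lower values mean less growth of the strain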
Condition Context: S. cerevisiae deletion strains, growth OD, locus YLR113W, strain HOG1, stronger effect = lower value
Out of some 5,500 compounds screened, about 2,000 (36%) were called active. Roughly 18% stayed inconclusive and do not appear here. The list shows a part of the results.
// reported normalized growth for each item listed

Below, each entry is followed by its recorded normalized growth result.
[[record]]
molecule = "C=C(CC)C(=O)c1ccc(OCC(=O)O)c(Cl)c1Cl"
measure_name = "normalized growth"
result_value = "0.551 (active)"

[[record]]
molecule = "O=C(NC(=S)Nc1cccc(C(F)(F)F)c1)c1ccc2nonc2c1"
measure_name = "normalized growth"
result_value = "0.713 (active)"

[[record]]
molecule = "Nc1ccc([As](=O)(O)O)cc1"
measure_name = "normalized growth"
result_value = "0.965 (inactive)"

[[record]]
molecule = "Fc1cccc(Cl)c1CSc1nncn1-c1ccc(OCc2ccccc2)cc1"
measure_name = "normalized growth"
result_value = "1.01 (inactive)"

[[record]]
molecule = "CCCC(C)C1(CC)C(=O)NC(=O)NC1=O (centres undefined)"
measure_name = "normalized growth"
result_value = "0.985 (inactive)"

[[record]]
molecule = "O=c1c(Cl)c(-n2cccn2)cnn1-c1ccc(Cl)cc1Cl"
measure_name = "normalized growth"
result_value = "0.691 (active)"

[[record]]
molecule = "CC(C)(CO)C(O)C(=O)NCCC(=O)NCCSSCCNC(=O)CCNC(=O)C(O)C(C)(C)CO (centres undefined)"
measure_name = "normalized growth"
result_value = "0.951 (inactive)"

[[record]]
molecule = "C=C(NC(=O)C(=C)NC(=O)c1csc(C2=NC3c4csc(n4)C4NC(=O)c5csc(n5)C(C(C)(O)C(C)O)NC(=O)C5CSC(=N5)C(=CC)NC(=O)C(C(C)O)NC(=O)c5csc(n5)C3(CC2)NC(=O)C(C)NC(=O)C(=C)NC(=O)C(C)NC(=O)C(C(C)CC)NC2C=Cc3c(C(C)O)cc(nc3C2O)C(=O)OC4C)n1)C(N)=O (centres undefined)"
measure_name = "normalized growth"
result_value = "0.987 (inactive)"


The recorded normalized growth for O=C(O)c1ccccc1Nc1cccc(C(F)(F)F)c1 is 0.137 (active)

The recorded normalized growth for CN1C(CC(=O)c2ccccc2)CCCC1CC(O)c1ccccc1 (centres undefined) is 0.984 (inactive)

The recorded normalized growth for Cc1ccc(S(=O)(=O)CCSC2=CC(=O)CC(C)(C)S2)cc1 is 1.05 (inactive)

The recorded normalized growth for C[C@H]1[C@H]2CCC3C4CC=C5C[C@@H](N(C)C)CC[C@]5(C)C4CC[C@@]32CN1C (some centres undefined) is 1.02 (inactive)

The recorded normalized growth for CC(=O)Nc1ccc(/C=C/[N+](=O)[O-])cc1 is 0.628 (active)

The recorded normalized growth for CCOC(=O)/C(=N/Nc1c(Cl)cccc1Cl)c1csc(N)n1 is 0.801 (active)

The recorded normalized growth for Nc1ccc(S(=O)(=O)Nc2ccccn2)cc1 is 0.976 (inactive)

The recorded normalized growth for COc1c2c(cc3c1OCO3)CCN(C)C2 is 1.04 (inactive)

The recorded normalized growth for CC(=O)Nc1cc([As](=O)(O)O)ccc1O is 1.01 (inactive)

The recorded normalized growth for CC(=O)Nc1ccc(S(=O)(=O)Nc2ccc([N+](=O)[O-])cc2)cc1 is 0.969 (inactive)

====

Experiment Description: chemical genetic growth profiling, strain panel (AID 1159580);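 note: tested at 20 µM; growth read once vehicle control cultures reached saturation at 30 °C; 1 = growth at the plate median or of vehicle wells; lower values mean less growth of the strain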
Condition Context: S. cerevisiae deletion strains, growth OD, locus YLR330W, strain CHS5, stronger effect = lower value
The campaign covered roughly 5,500 compounds. About 2,000 (36%) were called active. Inconclusive results (about 18%) are left out. The list shows a part of the results.
Measure Name: normalized growth
// return a plain number; no unit text

Below, each entry is followed by its recorded normalized growth result.
[[record]]
molecule = "CS(=O)(=O)CCCCN=C=S"
measure_name = "normalized growth"
result_value = 0.822

[[record]]
molecule = "CC(=O)Oc1ccc(Cl)c2cccnc12"
measure_name = "normalized growth"
result_value = 0.0507

[[record]]
molecule = "Cc1ccc2cc3c(ccc4ccccc43)c3c2c1CC3"
measure_name = "normalized growth"
result_value = 0.986

[[record]]
molecule = "CC(C)(C)NC[C@@H](O)COc1nsnc1N1CCOCC1"
measure_name = "normalized growth"
result_value = 0.989

[[record]]
molecule = "CCC[C@H]1CC2=C(C[C@@H](CC)CC3=C1C(=O)OC3=O)C(=O)OC2=O"
measure_name = "normalized growth"
result_value = 1.01


The recorded normalized growth for C=CC(C1=CC(=O)C(OC)=CC1=O)c1ccc(O)cc1 (stereo not drawn) is 1

The recorded normalized growth for C=CC(C1=CC(=O)C=CC1=O)c1ccccc1 (stereo not drawn) is 0.882

The recorded normalized growth for CCCCC(CC)CN1CN(CC(CC)CCCC)CC(C)(N)C1 (stereo not drawn) is 0.437

The recorded normalized growth for C=CC(C1=CC(=O)C(OC)=CC1=O)c1ccccc1 (stereo not drawn) is 0.912

The measured values listed here are drawn from PubChem BioAssay AID1159580.
